molecular target: human κ opioid receptor (Homo sapiens (Human), UniProt P41145); conditions: CHO cell membranes, cloned human receptor, 1 nM [3H]U69,593; read-out: Binding affinity κ (Ki, nm)
pKi: −log10 of the molar value.
propertyMeasured: pKi

• CN1CC[C@]23CC(=O)CC[C@@]2(O)[C@H]1Cc1ccc(C(=O)NCCc2ccc(-c4ccccc4)cc2)c(O)c13.Cl [B, reference compound] = 9.15
• CN1CC[C@]23CC(=O)CC[C@@]2(O)[C@H]1Cc1ccc(C(=O)NCCc2nc4ccccc4[nH]2)c(O)c13 = 6.07
• CO[C@@]12CCC(=O)C[C@@]13CCN(C)[C@@H]2Cc1ccc(C(=O)NCCc2ccc(-c4c[nH]c(=O)[nH]c4=O)cc2)c(O)c13 = 6.07
• CN1CC[C@]23CC(=O)CC[C@@]2(O)[C@H]1Cc1ccc(C(=O)NCCc2ccc(-c4cn[nH]c4)cc2)c(O)c13 = 7.72
• C=C1CC[C@@]2(O)[C@H]3Cc4ccc(C(=O)NCCc5ccc(-c6c[nH]c(=O)[nH]c6=O)cc5)c(O)c4[C@@]2(CCN3C)C1 = 6.00
• CN1CC[C@]23CC(=O)CCC2[C@H]1Cc1ccc(C(=O)NCCc2nc4ccccc4[nH]2)c(O)c13 (stereo partly shown) = 6.40
• CN1CC[C@]23CC(=O)CC[C@@]2(O)[C@H]1Cc1ccc(C(=O)NCCc2ccc(-c4ccc(=O)[nH]c4)cc2)c(O)c13 = 6.74

###

molecular target: human μ opioid receptor (Homo sapiens (Human)); conditions: read-out: Binding affinity μ (Ki, nm)
Entries and their Ki
propertyMeasured: Ki

• CO[C@@]12CCC(=O)C[C@@]13CCN(C)[C@@H]2Cc1ccc(C(=O)NCCc2ccc(-c4c[nH]c(=O)[nH]c4=O)cc2)c(O)c13 = 0.52 nM
• CN1CC[C@]23CC(=O)CC[C@@]2(O)[C@H]1Cc1ccc(C(=O)NCCc2nc4ccccc4[nH]2)c(O)c13 = 27 nM
• CN1CC[C@]23CC(=O)CC[C@@]2(O)[C@H]1Cc1ccc(C(=O)NCCc2ccc(-c4ccccc4)cc2)c(O)c13.Cl [B, reference compound] = 0.39 nM

###

Biological target: UniProtKB P35372
Type: biochemical
Settings: [35S]GTPγS binding, CHO membranes
Experimental: The [^35S]GTPγS assay measures the functional properties of a compound by quantifying the level of G-protein activation following agonist binding in studies using stably transfected cells, and is considered to be a measure of the efficacy of a compound. […] Nonspecific binding was measured by inclusion of 10 μM GTPγS. […] The filters were washed three times with cold 50 mM Tris-HCl, pH 7.5, and were counted in 2 mL of Ecoscint scintillation fluid.
Counter-ions that a name gives are not always drawn.
propertyMeasured: In vitro functional agonism for μ receptor Agonist?

• CN1CC[C@]23CC(=O)CC[C@@]2(O)[C@H]1Cc1ccc(C(=O)NCCc2ccc(-c4cnc(O)nc4O)cc2)c(O)c13 [Compound 4] = Yes
• O=C1CC[C@@]2(O)[C@H]3Cc4ccc(C(=O)NCCc5ccc(-c6c[nH]c(=O)[nH]c6=O)cc5)c(O)c4[C@@]2(CCN3CCc2ccccc2)C1 [Compound 2] = Yes
• C=C1CC[C@@]2(O)[C@H]3Cc4ccc(C(=O)NCCc5ccc(-c6c[nH]c(=O)[nH]c6=O)cc5)c(O)c4[C@@]2(CCN3C)C1 [Compound 6] = Yes
• CN1CC[C@]23CC(=O)CC[C@@]2(O)[C@H]1Cc1ccc(C(=O)NCCc2ccc(-c4cn[nH]c4)cc2)c(O)c13 [Compound 8] = Yes
• CN1CC[C@]23CC(=O)CC[C@@]2(O)[C@H]1Cc1ccc(C(=O)NCCc2ccc(-c4ccc(=O)[nH]c4)cc2)c(O)c13 [Compound 3] = Yes
• CN1CC[C@]23CC(=O)CC[C@@]2(O)[C@H]1Cc1ccc(C(=O)NCCc2ccc(-c4cc[nH]c(=O)c4)cc2)c(O)c13 [Compound 10] = Yes
• CN1CC[C@]23CC(=O)CC[C@@]2(O)[C@H]1Cc1ccc(C(=O)NCCc2ccc(-c4cnc(=O)[nH]c4)cc2)c(O)c13 [Compound 11, maleate salt] = Yes
• CN1CC[C@]23CC(=O)CCC2[C@H]1Cc1ccc(C(=O)NCCc2nc4ccccc4[nH]2)c(O)c13 (some centres unmarked) [Compound 9] = Yes
